Values from patent US20140050778A1

Tested on: (CUG)10 RNA (SEQ ID NO: 3)
Assay Protocol: SPR binding to immobilized biotinylated RNA
Test Context: SPR, (CUG)10
Measured Quantity: Off-rates (koff)

CCc1nc2cc3ccccc3cc2cc1C(=O)N[C@@H](CCCCN)C(=O)N[C@@H](C/C=C\C[C@H](NC(=O)[C@H](CCCCN)NC(=O)c1cc2cc3ccccc3cc2nc1CC)C(=O)N1CCC[C@H]1C(=O)NCCCN)C(=O)N1CCC[C@H]1C(=O)NCCCN [Compound 8] : 0.00303 s⁻¹

List reported Off-rates (koff) for each of these molecules:
1. CCc1nc2cc3ccccc3cc2cc1C(=O)N1CCC[C@H]1C(=O)N[C@@H](C/C=C/C[C@H](NC(=O)[C@@H]1CCCN1C(=O)c1cc2cc3ccccc3cc2nc1CC)C(=O)N[C@@H](CCCCN)C(=O)NCCCN)C(=O)N[C@@H](CCCCN)C(=O)NCCCN [Compound 5]
2. CCc1nc2cc3ccccc3cc2cc1C(=O)N[C@@H](CCCCN)C(=O)N[C@@H](C/C=C/C[C@H](NC(=O)[C@H](CCCCN)NC(=O)c1cc2cc3ccccc3cc2nc1CC)C(=O)N1CCC[C@H]1C(=O)NCCCN)C(=O)N1CCC[C@H]1C(=O)NCCCN [Compound 9]
3. CCc1nc2cc3ccccc3cc2cc1C(=O)N1CCC[C@H]1C(=O)N[C@@H](C/C=C\C[C@H](NC(=O)[C@@H]1CCCN1C(=O)c1cc2cc3ccccc3cc2nc1CC)C(=O)N[C@@H](CCCCN)C(=O)NCCCN)C(=O)N[C@@H](CCCCN)C(=O)NCCCN [Compound 4]
4. NCCCC[C@H](NC(=O)[C@H](C/C=C\C[C@H](NC(=O)[C@@H]1CCCN1)C(=O)N[C@@H](CCCCN)C(=O)NCCCN)NC(=O)[C@@H]1CCCN1)C(=O)NCCCN [Compound 6]

OUTPUT:
1. 0.00247 s⁻¹
2. 0.00285 s⁻¹
3. 0.00118 s⁻¹
4. 0.0348 s⁻¹
